- test_target: Anti-CD28 Fab (SEQ ID NOs: 696, 697)
- Sequence (VH, as listed by the source, chain 1 of 2): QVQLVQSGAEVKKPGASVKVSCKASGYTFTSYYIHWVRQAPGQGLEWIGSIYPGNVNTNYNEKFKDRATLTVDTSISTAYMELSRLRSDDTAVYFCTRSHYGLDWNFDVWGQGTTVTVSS
- Sequence (VL, as listed by the source, chain 2 of 2): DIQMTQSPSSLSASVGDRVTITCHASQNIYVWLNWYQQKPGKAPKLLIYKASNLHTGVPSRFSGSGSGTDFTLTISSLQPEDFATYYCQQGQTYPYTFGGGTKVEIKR
- test_protocol: phage ELISA on captured anti-CD28 Fab, wells pre-incubated with CD28 antigen as competitor;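 note: crude clonal phage supernatants added without washing, bound phage read out by HRP-coupled anti-M13 antibody, reference wells given blocking buffer only instead of CD28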
Record form. Attribute: Anti-CD28 Fab signal in the presence of CD28 (phage binding ELISA). Fill in for each entry.
Numbers only.

[[record]]
binder = "YCAGHLPEYMQKCL (Clonal phage displaying the peptide; not shown: fused to pIII of the bacteriophage) [Phage-632]"
measurement = 0.09

[[record]]
binder = "YCEGHLPQYLAKCL (Clonal phage displaying the peptide; not shown: fused to pIII of the bacteriophage) [Phage-640]"
measurement = 0.1

[[record]]
binder = "YCDGHSDEYMAKCL (Clonal phage displaying the peptide; not shown: fused to pIII of the bacteriophage) [Phage-635]"
measurement = 0.07

[[record]]
binder = "YCEGHLPQYIPKCL (Clonal phage displaying the peptide; not shown: fused to pIII of the bacteriophage) [Phage-643]"
measurement = 0.07

[[record]]
binder = "YCDGHQPEYMAKCL (Clonal phage displaying the peptide; not shown: fused to pIII of the bacteriophage) [Phage-637]"
measurement = 0.07


Batch lookup, Anti-CD28 Fab signal in the presence of CD28 (phage binding ELISA) per entry.
1. YCEGHSLEYIGKCL (Clonal phage displaying the peptide; not shown: fused to pIII of the bacteriophage) [Phage-636]
2. YCAGHLPEYISKCL (Clonal phage displaying the peptide; not shown: fused to pIII of the bacteriophage) [Phage-638]
3. YCEGHLPEYMSKCL (Clonal phage displaying the peptide; not shown: fused to pIII of the bacteriophage) [Phage-631]
4. YCDGHSAEYMMKCL (Clonal phage displaying the peptide; not shown: fused to pIII of the bacteriophage) [Phage-642]

A.
1: 0.06; 2: 0.08; 3: 0.07; 4: 0.08
